Numbers sourced from PubChem BioAssay (NCI).

# Test system: TK-10 renal
# ASSAY: NCI tumour cell line growth inhibition, 48 h
READOUT_TYPE: TGI

// worked examples, TGI included
{"MOLECULE": "Oc1ccc2ccccc2c1N=Nc1ccccc1", "TGI": "> 100 µM"}
{"MOLECULE": "CC(C)(C)C=C=C(C(C)(C)C)P(=O)(O)O", "TGI": "> 100 µM"}
{"MOLECULE": "CN(O)C(=O)Cc1ccccc1", "TGI": "> 100 µM"}
{"MOLECULE": "COc1ccc(C(=O)C=C2NCCN2)cc1", "TGI": "> 100 µM"}
{"MOLECULE": "CCOC(=O)c1c(SCCO)n(-c2ccccc2)c(=S)n(-c2ccccc2)c1=O", "TGI": "> 100 µM"}
{"MOLECULE": "COc1ccccc1-n1c(SCc2cc(OC)c(OC)c(OC)c2)nc2ccc(Cl)cc2c1=O", "TGI": "> 100 µM"}
{"MOLECULE": "COc1cccc(C2C(C(=O)Nc3cc(=O)n(C)c(=O)n3C)=C(C)NC(C)=C2C(=O)Nc2cc(=O)n(C)c(=O)n2C)c1O", "TGI": "> 100 µM"}
{"MOLECULE": "CO[C@H]1O[C@@H]2CO[C@@H](c3ccccc3)O[C@H]2C[C@]12CCC/C=C\\CO2", "TGI": "59.2 µM"}

Challenge: Sample Clc1nc2c(-c3cccs3)ncnc2n1Cc1ccccc1 — what was its TGI?
Response given: 61.5 µM

Challenge: Sample CSCCC(NC(c1ccccc1)c1ccccc1)[P+](=O)O (stereo not drawn) — what was its TGI?
Response given: > 100 µM

Challenge: Sample COc1ccc2c3c(c(OCCCN(C)C)nc2c1)-c1ccc(Cl)cc1C3=O — what was its TGI?
Response given: 15.3 µM

Challenge: Sample Cc1ccc(Nc2ccc(Nc3ccc(C)cc3)c3c2C(=O)c2c(O)ccc(O)c2C3=O)cc1 — what was its TGI?
Response given: > 100 µM

Challenge: Sample Cc1n[nH]c(=O)n1N=C(c1ccccc1)c1ccccc1 — what was its TGI?
Response given: > 100 µM

Challenge: Sample COCN1C(=O)[C@@H]2CCCN2C(=O)c2cc([N+](=O)[O-])ccc21 — what was its TGI?
Response given: > 100 µM

Challenge: Sample O=[As](O)(O)c1ccc(Cc2ccc([As](=O)(O)O)cc2)cc1 — what was its TGI?
Response given: 1.27 µM

Challenge: Sample COc1cc2c(cc1C)n(O)c(C)c(C(=O)C/C(=N/NC(=O)C[N+](C)(C)C)C(=O)Nc1cccc(Cl)c1C)[n+]2=O — what was its TGI?
Response given: > 100 µM

Challenge: Sample c1ccc(-c2nc(N3CCNCC3)c3nc(-c4ccccc4)oc3n2)cc1 — what was its TGI?
Response given: 3.32 µM

Challenge: Sample CC[C@H](C)[C@H](NC(=O)C12C3C4C1C1C2C3C41NC(C)=O)C(=O)N(C)[C@H](C[C@@H](OC(C)=O)c1nc(C(=O)N[C@@H](Cc2ccccc2)C[C@H](C)C(=O)OC)cs1)C(C)C (stereo partly drawn) — what was its TGI?
Response given: > 14.3 µM

Challenge: Sample COc1ccc(NC(=O)C(=O)C2NC(=S)NC2=O)c(OC)c1 (stereo not drawn) — what was its TGI?
Response given: > 100 µM
